Recorded values, source patent US20020193425A1.

- measurement protocol: Cytotoxicity, viability by Trypan blue exclusion
- setup conditions: human, peripheral human lymphocytes
reported endpoint: IC50 at 3 days

Reported IC50 at 3 days, compound COC(=O)[C@@]12OC[C@]34[C@H]([C@@H](O)[C@@H]1O)[C@@]1(C)CC(=O)C(O)=C(C)[C@@H]1C[C@H]3OC(=O)[C@H](OC(=O)C=C(C)C)[C@@H]24 : ____ > 0.1 µg/mL

----------
- measurement protocol: Withdrawal assays, growth and differentiation of HL-60 cells
- Type: cell-based, human
- setup conditions: human, HL-60 cells, 12.5 ng/ml, 48 h exposure
reported endpoint: viability at 48 h, 12.5 ng/ml

State the recorded viability at 48 h, 12.5 ng/ml for this entry: COC(=O)[C@@]12OC[C@]34[C@H]([C@@H](O)[C@@H]1O)[C@@]1(C)CC(=O)C(O)=C(C)[C@@H]1C[C@H]3OC(=O)[C@H](OC(=O)C=C(C)C)[C@@H]24 > 80%

----------
- measurement protocol: Cytotoxicity, viability by Trypan blue exclusion
- setup conditions: human, HL-60 cells, Cytotoxicity (IC50, ng/ml), four days
reported endpoint: IC50 at 4 days

# get_value(readout='IC50 at 4 days', item= COC(=O)[C@@]12OC[C@]34[C@H]([C@@H](O)[C@@H]1O)[C@@]1(C)CC(=O)C(O)=C(C)[C@@H]1C[C@H]3OC(=O)[C@H](OC(=O)C=C(C)C)[C@@H]24 ) 0.05 to 0.1 µg/mL

----------
- measurement protocol: Withdrawal assays, growth and differentiation of HL-60 cells
- Type: cell-based, human
- setup conditions: human, HL-60 cells, 4-day protocol, read-out: cytotoxic IC50
reported endpoint: IC50 at 4 days
Your reply should be a number followed by the unit it is expressed in.

Would you kindly share the measured IC50 at 4 days for COC(=O)[C@@]12OC[C@]34[C@H]([C@@H](O)[C@@H]1O)[C@@]1(C)CC(=O)C(O)=C(C)[C@@H]1C[C@H]3OC(=O)[C@H](OC(=O)C=C(C)C)[C@@H]24 [compound 1, brusatol] ? 0.025 µg/mL

----------
- measurement protocol: Cytotoxicity, viability by Trypan blue exclusion
- setup conditions: human, SUPB13 cells, Cytotoxicity (IC50, ng/ml), four days
reported endpoint: IC50 at 4 days

Quick check: IC50 at 4 days of COC(=O)[C@@]12OC[C@]34[C@H]([C@@H](O)[C@@H]1O)[C@@]1(C)CC(=O)C(O)=C(C)[C@@H]1C[C@H]3OC(=O)[C@H](OC(=O)C=C(C)C)[C@@H]24 ? < 0.025 µg/mL
